assayed.system: rScyreprocin (Scylla paramamosain)
Construct: recombinant His-tagged scyreprocin, purified
Sequence (A0A7D0GB18 1-84): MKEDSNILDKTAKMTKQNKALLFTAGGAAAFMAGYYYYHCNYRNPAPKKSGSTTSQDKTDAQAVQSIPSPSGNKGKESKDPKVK
protocol.text: modified ELISA on progesterone-coated plate, Scatchard plot
test.readout: Kd (nM)

[
  {
    "structure.as.smiles": "CC(=O)[C@H]1CC[C@H]2[C@@H]3CCC4=CC(=O)CC[C@]4(C)[C@H]3CC[C@]12C",
    "measurement": 259
  }
]

###

assayed.system: rSCY2 (Scylla paramamosain)
Construct: recombinant His-tagged SCY2, purified
Sequence (A0AAW0UAN3 25-124 limits assumed): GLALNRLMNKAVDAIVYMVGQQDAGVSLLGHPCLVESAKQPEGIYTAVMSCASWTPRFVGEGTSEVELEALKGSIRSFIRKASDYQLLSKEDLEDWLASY
protocol.text: modified ELISA on progesterone-coated plate, Scatchard plot
protocol.conditions: protein 0-24 uM on plate coated with 3 ug progesterone; antibody detection; rSCY2 alone
pKd: −log10 of the molar value.

[
  {
    "compound": "CC(=O)[C@H]1CC[C@H]2[C@@H]3CCC4=CC(=O)CC[C@]4(C)[C@H]3CC[C@]12C [progesterone]",
    "pKd": 6.84
  }
]
